B1: S. cerevisiae Abp1 (full length; SH3 domain 535-592 mutated) / Hua2 (parent)
chain 1: MALEPIDYTTHSREIDAEYLKIVRGSDPDTTWLIISPNAKKEYEPESTGSSFHDFLQLFDETKVQYGLARVSPPGSDVEKIIIIGWCPDSAPLKTRASFAANFAAVANNLFKGYHVQVTARDEDDLDENELLMKISNAAGARYSIQTSSKQQGKASTPPVKKSFTPSKSPAPVSKKEPVKTPSPAPAAKISSRVNDNNDDDDWNEPELKERDFDQAPLKPNQSSYKPIGKIDLQKVIAEEKAKEDPRLVQKPTAAGSKIDPSSDIANLKNESKLKRDSEFNSFLGTTKPPSMTESSLKNDDDKVIKGFRNEKSPAQLWAERKAKQNSGNAETKAEAPKPEVPEDEPEGEPDVKDLKSKFEGLAASEKEEEEMENKFAPPPKKSEPTIISPKPFSKPQEPVKAEEAEQPKTDYKKIGNPLPGMHIEADNEEEPEENDDDWDDDEDEAAQPPLPSRNVASGAPVQKEEPEQEEIAPSLPSRNSIPAPKQEEAPEQAPEEEIEEEAEEAAPQLPSRSSAAPPPPPRRATPEKKPKENPWATAEYDYDAAEDNELTFVENDKIINIEFVDDDWWLGELEKDGSKGLFPSNYVSLGN
chain 2: MQQTKFGKMYLDHDSVVEYSEDEIVEADRITLGYKKRLSMIENQMRHLLEDFSLDVQQIEPILADLQKYYDAFLQLLQKRNKSLQCKRSTHQPVPSPMNSQTSTNAKVNLSGKLMKFQLNSVQKFDEENILRILQNKIEFEHYFQIDKGKKQKVLLLAVYQCLNGPTRLHKVLNIEGIIHNNSIRTILGKQVSSSKWTVFLYDVKLVLLAHRQDVPNLETSKMIVRYGDLFPCALYFKDHTAY

# Variants of: B1
# test.description: DHFR protein-fragment complementation in yeast (Abp1-DHFR F[1,2] x partner-DHFR F[3]), deep mutational scanning, second methotrexate selection vs reference
# applied.conditions: with Hua2; S. cerevisiae, DHFR-PCA selection in liquid with methotrexate at 30 C, two 72 h selections (the score uses the second); reference = the pre-selection culture; not an affinity; value at the no-binding floor (a bound); scale: DMS score: mean over two replicates of log2(f_test/f_ref + 0.5)/ln 2, minus the synonymous-codon median
Here, each record is paired with measured screen value data.

| sequence.change | result |
| --- | --- |
| chain 1 Y541P | < -3.06 |

Fill blank: measured screen value of the variant chain 1 F553A is ____.
-3.03

Can you share its screen value? I mean this variant: chain 1 Y587G
-3

Given chain 1 W569I , state its recorded screen value.
-2.99

Data credit: paper PMC7954794
